target: angiotensin I-converting enzyme (ACE) (Oryctolagus cuniculus); construct: purchased Sigma Chemical Co. (St. Louis, MO, USA); assay: ACE inhibitory activity assay (HHL substrate, HPLC detection of hippuric acid); format: biochemical; details: chemically synthesized peptides
Sequence (P12822 34-1310): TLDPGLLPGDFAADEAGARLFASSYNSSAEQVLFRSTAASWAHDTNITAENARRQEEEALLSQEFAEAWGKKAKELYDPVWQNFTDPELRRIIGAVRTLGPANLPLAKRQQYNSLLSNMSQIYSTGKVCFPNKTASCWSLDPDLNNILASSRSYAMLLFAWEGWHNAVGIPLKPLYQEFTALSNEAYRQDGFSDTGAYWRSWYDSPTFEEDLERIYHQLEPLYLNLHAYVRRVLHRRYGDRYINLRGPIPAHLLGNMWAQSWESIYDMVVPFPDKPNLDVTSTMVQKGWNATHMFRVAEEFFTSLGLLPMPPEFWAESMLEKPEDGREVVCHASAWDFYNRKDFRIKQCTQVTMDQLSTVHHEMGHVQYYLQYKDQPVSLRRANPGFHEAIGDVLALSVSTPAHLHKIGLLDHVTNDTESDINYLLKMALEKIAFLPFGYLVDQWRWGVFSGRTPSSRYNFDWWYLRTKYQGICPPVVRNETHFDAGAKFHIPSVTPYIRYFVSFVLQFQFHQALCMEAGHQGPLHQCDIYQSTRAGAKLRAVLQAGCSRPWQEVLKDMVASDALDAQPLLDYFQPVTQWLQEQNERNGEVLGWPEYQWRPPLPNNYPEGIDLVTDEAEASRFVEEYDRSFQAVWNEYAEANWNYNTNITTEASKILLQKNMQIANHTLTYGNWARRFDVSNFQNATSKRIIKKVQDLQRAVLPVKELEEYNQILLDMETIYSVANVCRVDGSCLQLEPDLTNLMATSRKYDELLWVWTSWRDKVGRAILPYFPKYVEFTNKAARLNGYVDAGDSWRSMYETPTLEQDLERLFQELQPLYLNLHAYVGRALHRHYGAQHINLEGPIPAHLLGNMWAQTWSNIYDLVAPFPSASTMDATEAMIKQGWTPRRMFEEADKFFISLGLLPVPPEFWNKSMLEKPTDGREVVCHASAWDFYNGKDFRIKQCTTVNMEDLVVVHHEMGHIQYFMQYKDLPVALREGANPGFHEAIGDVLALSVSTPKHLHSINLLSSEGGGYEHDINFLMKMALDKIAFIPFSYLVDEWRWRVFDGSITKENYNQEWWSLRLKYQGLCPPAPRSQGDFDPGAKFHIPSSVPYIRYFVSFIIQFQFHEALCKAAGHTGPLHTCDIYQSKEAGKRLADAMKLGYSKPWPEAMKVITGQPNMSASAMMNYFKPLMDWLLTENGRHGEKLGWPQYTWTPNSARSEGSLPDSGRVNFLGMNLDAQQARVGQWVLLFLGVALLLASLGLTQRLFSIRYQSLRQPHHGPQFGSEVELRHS
No end group written: not given here.
Checkbox rule: IC50 lower than 200 µM = 1.0; IC50 not lower than 200 µM = 0.0.

Task item: Record LGECGGR [LGECGGR] : is its IC50 strictly below 200 µM?
Reply: 0.0

Task item: Param item: LFVAAP [LFVAAP]
Reply: 1.0

Task item: Again, but for LGALPF [LGALPF]
Reply: 0.0

Task item: Entry HFEAMR [HFEAMR] please
Reply: 1.0

Task item: Now this one: LASPTM [LASPTM]
Reply: 1.0

Task item: Field entry: MPFLFK [MPFLFK]
Reply: 1.0

Task item: Same question, LLHSPP [LLHSPP] this time
Reply: 0.0
